Values were extracted from patent US20220073525A1.

Target: USP1 (Homo sapiens)
Sequence (O94782 whole entry): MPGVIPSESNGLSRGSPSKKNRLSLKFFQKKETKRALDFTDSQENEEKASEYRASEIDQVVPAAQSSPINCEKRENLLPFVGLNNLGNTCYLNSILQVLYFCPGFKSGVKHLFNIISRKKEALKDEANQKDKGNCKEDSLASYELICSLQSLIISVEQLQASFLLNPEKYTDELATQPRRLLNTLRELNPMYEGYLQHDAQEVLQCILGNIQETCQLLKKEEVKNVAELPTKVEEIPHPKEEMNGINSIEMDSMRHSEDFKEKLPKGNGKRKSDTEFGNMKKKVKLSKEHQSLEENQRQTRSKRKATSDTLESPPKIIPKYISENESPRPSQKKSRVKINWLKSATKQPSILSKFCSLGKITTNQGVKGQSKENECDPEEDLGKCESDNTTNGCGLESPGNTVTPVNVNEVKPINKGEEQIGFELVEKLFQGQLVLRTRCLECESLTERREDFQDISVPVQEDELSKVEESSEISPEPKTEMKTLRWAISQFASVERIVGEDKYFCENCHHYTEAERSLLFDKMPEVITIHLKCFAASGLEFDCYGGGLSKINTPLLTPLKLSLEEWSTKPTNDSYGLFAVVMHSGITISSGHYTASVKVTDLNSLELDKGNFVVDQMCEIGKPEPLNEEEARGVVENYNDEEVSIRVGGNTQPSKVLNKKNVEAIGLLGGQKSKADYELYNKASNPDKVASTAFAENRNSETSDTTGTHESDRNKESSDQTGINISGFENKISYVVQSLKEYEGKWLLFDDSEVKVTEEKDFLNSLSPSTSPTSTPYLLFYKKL
Sequence (Q8TAF3 whole entry partner): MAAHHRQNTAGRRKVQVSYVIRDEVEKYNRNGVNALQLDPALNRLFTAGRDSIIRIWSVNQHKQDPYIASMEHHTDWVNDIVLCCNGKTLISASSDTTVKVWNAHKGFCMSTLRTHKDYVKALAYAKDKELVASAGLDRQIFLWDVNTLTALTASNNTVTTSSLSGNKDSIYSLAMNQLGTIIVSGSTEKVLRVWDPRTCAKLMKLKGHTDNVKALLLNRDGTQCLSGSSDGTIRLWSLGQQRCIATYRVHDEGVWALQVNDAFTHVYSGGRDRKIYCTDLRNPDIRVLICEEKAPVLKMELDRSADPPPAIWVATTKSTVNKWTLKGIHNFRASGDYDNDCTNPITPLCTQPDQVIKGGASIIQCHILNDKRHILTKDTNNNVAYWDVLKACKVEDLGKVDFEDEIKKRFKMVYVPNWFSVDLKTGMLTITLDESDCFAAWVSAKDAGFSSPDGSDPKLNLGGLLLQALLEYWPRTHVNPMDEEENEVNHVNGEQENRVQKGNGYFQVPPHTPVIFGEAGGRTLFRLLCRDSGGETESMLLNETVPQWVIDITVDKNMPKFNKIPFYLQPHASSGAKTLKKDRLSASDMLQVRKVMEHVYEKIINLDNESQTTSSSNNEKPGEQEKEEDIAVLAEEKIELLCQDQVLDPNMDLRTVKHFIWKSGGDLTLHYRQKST
Assay: Biochemical Assay for USP1 Inhibition (Ub-Rho 110 fluorescence)
Settings: Table 5; 30 min preincubation, Enzyme 0.025 nM, Substrate Ub-Rho 110 25 nM; read-out: IC50 (μm)
Measured property: IC50

compound=Cc1nc(-c2cccnc2C(C)C)c2n1CCN(c1ccc(-c3nc(C(F)(F)F)cn3C)nc1)C2 measured_result="≤ 1000 nM"
compound="Cc1nc(-c2cccnc2OC(F)F)c2n1CCN(c1ccc(-c3nc(C(F)(F)F)cn3C)cc1)C2C (single isomer, unassigned) [Compound 52-1]" measured_result="≤ 1000 nM"
compound=Cc1nc(-c2cccnc2OC(F)F)c2n1CCN(c1ccc(-n3ccc(C(F)(F)F)n3)cc1)C2 measured_result="≤ 1000 nM"
compound=Cc1nc(-c2cccnc2C(C)C)c2n1CCN(c1ccc(C3(O)COC3)cc1)C2 measured_result="> 25000 nM"
compound=Cc1nc(-c2cccnc2C(C)C)c2n1CCN(c1ccc(-n3ccnc3)cc1)C2 measured_result="> 25000 nM"
compound=Cc1nc(-c2cccnc2C(C)C)c2n1CCN(c1ccc(-n3cccn3)cc1)C2 measured_result="1000 to 10000 nM"
compound=Cc1nc(-c2cccnc2C(C)C)c2n1CCN(c1ccc(-c3nnn(C)n3)cc1)C2 measured_result="1000 to 10000 nM"
compound="Cc1nc(-c2cccnc2C(C)C)c2n1CCN(c1ccc(-c3nc(C(F)(F)F)cn3C)cc1)C2C (stereo not drawn) [Compound 85]" measured_result="≤ 1000 nM"
compound=Cc1nc(-c2cccnc2C(C)C)c2n1CCN(c1ccc(N3CCCC3=O)cc1)C2 measured_result="1000 to 10000 nM"
compound=CC(C)c1ncccc1-c1nc(C2CC2)n2c1CN(c1ccc(-c3nc(C(F)(F)F)cn3C)cc1)CC2 measured_result="≤ 1000 nM"
compound=COc1nc(-c2cccnc2C(C)C)c2n1CCN(c1ccc(-c3nc(C(F)(F)F)cn3C)cc1)C2 measured_result="≤ 1000 nM"
compound=COc1ccc(N2CCn3c(C)nc(-c4cccnc4C(C)C)c3C2)cc1 measured_result="> 25000 nM"
